Each entry below carries its reported cytotoxicity at 10 µM.
# Procedure summary: Toxicity liver stage against HepG2, at 10uM
# Format: cell-based
# Set-up: test concentration 10 uM, cell line HepG2-A16-CD81EGFP
# Setup conditions: human, HepG2-A16-CD81EGFP cells; read-out: INHIBITION

# Compound, Units text, cytotoxicity at 10 µM
measured = [
    ("N#CCCCOc1cccnc1NC(=O)CC1CCCCC1", "%", 21.9),
    ("Cc1ccc(-c2nc(CCNCc3ccncc3)co2)cc1", "%", -4.96),
    ("Cc1ccc(CN2CCCn3c(nc(CN4CCCC4)cc3=O)C2)s1", "%", -0.207),
    ("CO[C@H]1CN(S(=O)(=O)c2ccccc2F)C[C@@]12CCCO2", "%", -3.08),
    ("CC(C)NC(=O)c1ccc2c(c1)C(c1nc[nH]n1)CN2S(C)(=O)=O (stereo not drawn)", "%", -132),
    ("CN(C)C(=O)C1CN(Cc2ccsc2)Cc2ccnn2C1 (stereo not drawn)", "%", -6.75),
    ("CC(C)c1noc(C(C)N2CCN(Cc3noc(C(C)(C)C)n3)CC2)n1 (stereo not drawn)", "%", -14.6),
    ("Cn1nc(CNC(=O)C2CC2)cc1C1CC1", "%", 1.96),
    ("Cc1noc(C)c1CN1C[C@H](OCC2CC2)[C@H]2OCCC[C@H]21", "%", -14.9),
    ("c1ccc(Oc2nccnc2C2CCN(C3CCOCC3)CC2)cc1", "%", 4.38),
    ("CCOC(=O)[C@H]1CNC[C@@H]1C(F)(F)F", "%", 7.06),
    ("CC(=O)Nc1ccc(F)c(S(=O)(=O)NC(C)(C)C)c1", "%", 1.15),
    ("NCCC(=O)N1CCC2(CC1)CN(C(=O)Cc1ccc(Cl)cc1)CCO2", "%", 2.24),
    ("O=C(NCCn1ccnc1)c1csc2c1CCCC2", "%", -1.34),
    ("Cc1nc2ccccc2c(=O)n1CCC(=O)N1CCNC(=O)C1", "%", -19),
    ("CCCn1ncc(-c2ccnc(N[C@@H]3C[C@H]4CC[C@@H]3C4)n2)c1C", "%", 0.541),
    ("Cc1nn(C)c(Cl)c1S(=O)(=O)N(C)c1ccc(Cl)cn1", "%", 7.92),
    ("CC(=O)NC1CCN(c2cc(C3CCNCC3)nc(C)n2)C1 (stereo not drawn)", "%", -1.92),
    ("Cc1ccc(N(CC(=O)c2ccc(Br)cc2)C2=NCCCCC2)cc1", "%", 36.5),
    ("COc1ccc(NC2CCN(C3CC3)C2=O)cn1 (stereo not drawn)", "%", -10),
    ("Cc1cnn(CC2CCCN2Cc2nnc(C3CC3)n2C)c1 (stereo not drawn)", "%", -12.2),
    ("Cc1nccn1C1CCCN(C(=O)c2cccc(Cn3ccnc3)c2)C1 (stereo not drawn)", "%", -24.6),
    ("CN(CCCc1cnn(C)c1)C(=O)Nc1cccc(C#N)c1", "%", -0.828),
    ("Cc1cc(C2CCNCC2)nc(-c2ccsc2)n1", "%", -1.97),
    ("COc1cc(C)c(C(C)NC(=O)c2cccnc2N(C)C)cc1OC (stereo not drawn)", "%", 1.25),
    ("COc1cccc(OCC2CCCN(C(=O)c3cnn(C)c3)C2)c1 (stereo not drawn)", "%", -21.4),
    ("CC(Cn1cccn1)NC(=O)NCc1cccnc1 (stereo not drawn)", "%", -0.088),
    ("Fc1ccc(-c2nc(CN3CCCC3Cn3cncn3)co2)cc1F (stereo not drawn)", "%", -5.58),
    ("CNc1cc(C2CCCN(C(=O)c3ccc(=O)[nH]n3)C2)ccn1 (stereo not drawn)", "%", -11.8),
    ("CC(c1ccccc1Cl)N(C(=O)CSCC(N)=O)C1CC1 (stereo not drawn)", "%", -36.3),
    ("COCCn1cc(NC(=O)NCC2CCN(c3ccccc3)C2)cn1 (stereo not drawn)", "%", 2.21),
    ("Cc1ccc(CN2CCC3(CCCN(Cc4ccc(F)c(F)c4)C3)C2)o1 (stereo not drawn)", "%", 9.39),
    ("CNc1ccc(C)cc1C(=O)N1CCCC2(CCNC2)C1 (stereo not drawn)", "%", -6.63),
    ("Cc1nc2ccccc2nc1CN(C)CC1CCCN1c1cccnn1 (stereo not drawn)", "%", 7.17),
    ("COCCN1C[C@@H]2CCCO[C@@H]2[C@H](NC(=O)c2cnccn2)C1", "%", 0.766),
    ("CN(CCC(=O)N1CCc2sccc2C1)Cc1cc(Br)cs1", "%", -14.8),
    ("CSc1ccc(C(=O)C2CCCN(C(=O)CCn3cnnn3)C2)cc1 (stereo not drawn)", "%", 6.03),
    ("CCn1c(C)cc(C(=O)NCc2ccc(CS(C)(=O)=O)cc2)c1C", "%", -16.9),
    ("CC1CN(C)c2ccccc2CN1C(=O)CSc1ccncc1 (stereo not drawn)", "%", -12.6),
    ("Cc1ccc(S(=O)(=O)N(C)CC(C)O)c(F)c1 (stereo not drawn)", "%", -11.4),
    ("CC(=O)c1cccc(NC(=O)N(CC(F)F)C2CC2)c1", "%", 2.08),
    ("O=C1CC(c2ccc(CO)o2)c2cnn(Cc3ccco3)c2N1 (stereo not drawn)", "%", 2.77),
    ("CCn1cc(NC(=O)NCC(c2ccc(OC)cc2)N(C)C)cn1 (stereo not drawn)", "%", -2.4),
    ("Cc1ccsc1C(CNC(=O)c1cc(=O)[nH]c(=O)[nH]1)N(C)C (stereo not drawn)", "%", 8.99),
    ("CSc1nccn1-c1cccc(C(=O)NCc2nnc(C)n2C)c1", "%", -9.46),
    ("COCCn1c(-c2cccc(OC)c2)cnc1NC(=O)NCC(C)C", "%", 11.4),
    ("Cc1occc(=O)c1OCc1noc(C(=O)NC2CCCC2)n1", "%", 0.618),
    ("O=C(Cn1cccc2oc(=O)nc1-2)NCC1Cc2ccccc2O1 (stereo not drawn)", "%", -7.79),
]
